Please go through the items and note down their pIC50.
# target_desc: CDK2/E (Homo sapiens, UniProt P24941)
# assay_notes: Kinase inhibition assay CDK2/E
# Assay type: biochemical
# test_conditions: at least duplicate experiments; read-out: IC50 CDK2/E
# pIC50 = -log10(concentration in molar units)

Form entry - test system: CDK2/E (Homo sapiens, UniProt P24941); read-out: pIC50; compound: O=c1[nH]c2cnc(Nc3ccc(N4CCNCC4)cc3)nc2n1C1CCCCC1 [13b]
5.47

Next compound up: Cn1c(=O)n(C2CCCCCC2)c2nc(Nc3ccc(N4CCNCC4)cc3)ncc21 [14h]
7.22

Next compound up: O=c1[nH]c2cnc(Nc3ccc(N4CCNCC4)cc3)nc2n1C1CCCCCC1 [13d]
6.00

Next compound up: CC1CCC(n2c(=O)n(C(C)C)c3cnc(Nc4ccc(N5CCNCC5)cc4)nc32)CC1 (stereo not drawn) [15c]
5.38

Next compound up: CC(C)n1c(=O)n(C2CCCCCC2)c2nc(Nc3ccc(N4CCNCC4)cc3)ncc21 [15d]
5.63

Next compound up: Cn1c(=O)n(C2CCCCC2)c2nc(Nc3ccc(N4CCNCC4)cc3)ncc21 [14e]
6.52

Next compound up: O=c1[nH]c2cnc(Nc3ccc(N4CCNCC4)cc3)nc2n1C1CCCC1 [13a]
4.61

Next compound up: Cn1c(=O)n(-c2ccccc2)c2nc(Nc3ccc(N4CCNCC4)cc3)ncc21 [14m]
5.43

Reference source: paper PMC9782245
